# experimental_context: siRNA; further: test system not given here
HELM strings list units from the 5' end as sugar, base in round brackets, then linkage (d deoxyribose, r ribose, m 2'-O-methyl, p phosphodiester). Strings are as the collection lists them, not checked against the first reports. ss, as = sense and antisense strand; [fl2r] = 2'-fluoro

substance	target mRNA knockdown / %
RNA1{m(G)p.r(A)p.m(A)p.r(A)p.m(C)p.r(U)p.m(G)p.r(G)p.m(U)p.r(A)p.m(C)p.r(U)p.m(U)p.r(U)p.m(C)p.r(C)p.m(C)p.r(C)p.m(C)p.r(T)p.r(T)}|RNA2{r(G)p.r(G)p.r(G)p.r(G)p.r(G)p.r(A)p.r(A)p.r(A)p.r(G)p.r(U)p.r(A)p.r(C)p.r(C)p.r(A)p.r(G)p.r(U)p.r(U)p.r(U)p.r(C)p.r(T)p.r(T)}$$$RNA1{StrandType:ss}|RNA2{StrandType:as}$	57
RNA1{[fl2r](A)p.r(C)p.[fl2r](G)p.r(G)p.[fl2r](C)p.r(U)p.[fl2r](C)p.r(G)p.[fl2r](C)p.r(U)p.[fl2r](A)p.r(C)p.[fl2r](C)p.r(C)p.[fl2r](U)p.r(C)p.[fl2r](G)p.r(A)p.r(C)p.r(T)p.r(T)}|RNA2{r(G)p.r(U)p.r(C)p.r(G)p.r(A)p.r(G)p.r(G)p.r(G)p.r(U)p.r(A)p.r(G)p.r(C)p.r(G)p.r(A)p.r(G)p.r(C)p.r(C)p.r(G)p.r(U)p.r(T)p.r(T)}$$$RNA1{StrandType:ss}|RNA2{StrandType:as}$	72

---

# experimental_context: siRNA
HELM strings list units from the 5' end as sugar, base in round brackets, then linkage (d deoxyribose, r ribose, m 2'-O-methyl, p phosphodiester). Strings are as the collection lists them, not checked against the first reports. ss, as = sense and antisense strand; [lna] = locked nucleic acid (LNA); [fl2r] = 2'-fluoro
Listed below: target mRNA knockdown values for each entry.
endpoint: target mRNA knockdown (%)

substance	endpoint	unit_abbrev	result_value
RNA1{r(C)p.r(U)p.r(U)p.r(A)p.r(C)p.r(G)p.r(C)p.r(U)p.r(G)p.r(A)p.r(G)p.r(U)p.r(A)p.r(C)p.r(U)p.r(U)p.r(C)p.r(G)p.r(A)p.r(T)p.r(T)}|RNA2{r(T)p.r(C)p.r(G)p.r(A)p.r(A)p.r(G)p.r(U)p.[lna](A)p.r(C)p.r(U)p.r(C)p.r(A)p.r(G)p.r(C)p.r(G)p.r(U)p.r(A)p.r(A)p.r(G)p.[lna](T)p.[lna](T)}$$$RNA1{StrandType:ss}|RNA2{StrandType:as}$	target mRNA knockdown	%	90
RNA1{r(A)p.r(U)p.r(C)p.r(G)p.r(C)p.[fl2r](U)p.r(G)p.r(C)p.r(U)p.r(C)p.r(C)p.r(U)p.r(C)p.r(C)p.r(U)p.r(C)p.r(C)p.r(U)p.r(C)p.r(T)p.r(T)}|RNA2{r(G)p.r(A)p.r(G)p.r(G)p.r(A)p.r(G)p.r(G)p.r(A)p.r(G)p.r(G)p.r(A)p.r(G)p.[fl2r](C)p.r(A)p.r(G)p.r(C)p.r(G)p.r(A)p.r(U)p.r(T)p.r(T)}$$$RNA1{StrandType:ss}|RNA2{StrandType:as}$	target mRNA knockdown	%	71
RNA1{m(G)p.r(G)p.m(U)p.r(A)p.m(G)p.r(G)p.m(G)p.r(U)p.m(U)p.r(G)p.m(A)p.r(A)p.m(G)p.r(A)p.m(G)p.r(A)p.m(C)p.r(U)p.r(U)p.r(T)p.r(T)}|RNA2{r(A)p.r(A)p.r(G)p.r(U)p.r(C)p.r(U)p.r(C)p.r(U)p.r(U)p.r(C)p.r(A)p.r(A)p.m(C)p.r(C)p.r(C)p.r(U)p.m(A)p.r(C)p.r(C)p.r(T)p.r(T)}$$$RNA1{StrandType:ss}|RNA2{StrandType:as}$	target mRNA knockdown	%	58

---

# experimental_context: siRNA
HELM strings list units from the 5' end as sugar, base in round brackets, then linkage (d deoxyribose, r ribose, m 2'-O-methyl, p phosphodiester). Strings are as the collection lists them, not checked against the first reports. ss, as = sense and antisense strand; [hna] = hexitol nucleic acid; [fl2r] = 2'-fluoro
endpoint: target mRNA knockdown (%)

substance	endpoint	result_value
RNA1{r(G)p.[hna](A)p.r(C)p.r(G)p.r(U)p.r(A)p.r(A)p.[hna](A)p.r(C)p.r(G)p.r(G)p.r(C)p.r(C)p.[hna](A)p.r(C)p.r(A)p.[hna](A)p.r(G)p.r(U)p.r(U)p.r(C)}|RNA2{r(A)p.m(C)p.r(U)p.r(U)p.r(G)p.r(U)p.r(G)p.r(G)p.r(C)p.r(C)p.r(G)p.r(U)p.r(U)p.r(U)p.r(A)p.r(C)p.r(G)p.r(U)p.r(C)p.r(G)p.r(C)}$$$RNA1{StrandType:ss}|RNA2{StrandType:as}$	target mRNA knockdown	54.2
RNA1{r(G)p.r(A)p.r(A)p.r(G)p.r(A)p.r(G)p.r(U)p.m(U)p.r(A)p.r(A)p.r(C)p.r(C)p.r(C)p.r(G)p.r(G)p.r(G)p.r(A)p.r(C)p.r(U)p.r(T)p.r(T)}|RNA2{r(A)p.r(G)p.r(U)p.r(C)p.r(C)p.r(C)p.r(G)p.r(G)p.r(G)p.r(U)p.m(U)p.r(A)p.r(A)p.r(C)p.r(U)p.r(C)p.r(U)p.r(U)p.r(C)p.r(T)p.r(T)}$$$RNA1{StrandType:ss}|RNA2{StrandType:as}$	target mRNA knockdown	51
RNA1{[fl2r](A)p.r(G)p.[fl2r](A)p.r(A)p.[fl2r](G)p.r(U)p.[fl2r](A)p.r(C)p.[fl2r](C)p.r(A)p.[fl2r](G)p.r(G)p.[fl2r](A)p.r(G)p.[fl2r](G)p.r(C)p.[fl2r](G)p.r(U)p.[fl2r](U)p.r(T)p.r(T)}|RNA2{r(A)p.r(A)p.r(C)p.[fl2r](G)p.r(C)p.r(C)p.r(U)p.r(C)p.r(C)p.r(U)p.[fl2r](G)p.[fl2r](G)p.r(U)p.r(A)p.r(C)p.r(U)p.r(U)p.r(C)p.r(U)p.r(T)p.r(T)}$$$RNA1{StrandType:ss}|RNA2{StrandType:as}$	target mRNA knockdown	39
RNA1{r(C)p.[fl2r](C)p.r(A)p.r(G)p.r(C)p.r(G)p.r(A)p.r(G)p.r(C)p.r(C)p.[fl2r](C)p.r(A)p.r(A)p.r(A)p.r(A)p.r(G)p.r(A)p.r(A)p.r(A)p.r(T)p.r(T)}|RNA2{r(U)p.r(U)p.r(U)p.r(C)p.r(U)p.r(U)p.r(U)p.r(U)p.r(G)p.r(G)p.r(G)p.r(C)p.r(U)p.r(C)p.r(G)p.r(C)p.r(U)p.r(G)p.r(G)p.r(T)p.r(T)}$$$RNA1{StrandType:ss}|RNA2{StrandType:as}$	target mRNA knockdown	85
RNA1{[fl2r](G)p.r(G)p.[fl2r](C)p.r(U)p.[fl2r](U)p.r(A)p.[fl2r](G)p.r(U)p.[fl2r](C)p.r(A)p.[fl2r](C)p.r(U)p.[fl2r](C)p.r(C)p.[fl2r](U)p.r(C)p.[fl2r](U)p.r(U)p.[fl2r](C)p.r(T)p.r(T)}|RNA2{r(G)p.r(A)p.r(A)p.r(G)p.r(A)p.r(G)p.r(G)p.r(A)p.r(G)p.r(U)p.r(G)p.r(A)p.r(C)p.r(U)p.r(A)p.r(A)p.r(G)p.r(C)p.r(C)p.r(T)p.r(T)}$$$RNA1{StrandType:ss}|RNA2{StrandType:as}$	target mRNA knockdown	23

---

# experimental_context: siRNA
HELM strings list units from the 5' end as sugar, base in round brackets, then linkage (d deoxyribose, r ribose, m 2'-O-methyl, p phosphodiester). Strings are as the collection lists them, not checked against the first reports. ss, as = sense and antisense strand
Recorded target mRNA knockdown for the following substances

substance	unit_abbrev	target mRNA knockdown
RNA1{r(A)p.r(G)p.r(G)p.r(A)p.r(C)p.r(G)p.r(G)p.r(U)p.r(A)p.r(C)p.r(U)p.r(U)p.r(U)p.r(C)p.r(G)p.r(A)p.r(A)p.r(A)p.r(G)p.r(T)p.r(T)}|RNA2{r(C)p.r(U)p.r(U)p.r(U)p.r(C)p.r(G)p.r(A)p.r(A)p.r(A)p.r(G)p.r(U)p.m(A)p.r(C)p.r(C)p.r(G)p.r(U)p.r(C)p.r(C)p.r(U)p.r(T)p.r(T)}$$$RNA1{StrandType:ss}|RNA2{StrandType:as}$	%	46
RNA1{r(G)p.r(A)p.r(C)p.r(G)p.r(U)p.r(A)p.r(A)p.r(A)p.r(C)p.r(G)p.r(G)p.r(C)p.r(C)p.r(A)p.r(C)p.r(A)p.r(A)p.r(G)p.r(U)p.r(U)p.r(C)}|RNA2{r(A)p.m(C)p.r(U)p.r(U)p.r(G)p.r(U)p.r(G)p.r(G)p.r(C)p.r(C)p.r(G)p.r(U)p.r(U)p.r(U)p.r(A)p.r(C)p.r(G)p.r(U)p.r(C)p.r(G)p.r(C)}$$$RNA1{StrandType:ss}|RNA2{StrandType:as}$	%	76
